Data credit: patent US20220017566A1

assay: Metabolic stability in mouse liver microsomes; assay type: in vitro ADME, CD-1 mouse; conditions: CD-1
ENDPOINT: CLint scaled at 1 μM (mL/min/kg)

Reference set (3 entries):
INSERT INTO measurements (molecule, experimental_result) VALUES
  ('CC1(C)C(=O)C(C#N)=C[C@]2(C)C3=CC(=O)[C@@H]4[C@@H]5C[C@@](C)(N6CC(O)C6)CC[C@]5(C)CC[C@@]4(C)[C@]3(C)CC[C@@H]12 [Example 26]', 402),
  ('CC(=NC#N)NC[C@]12CCC(C)(C)C[C@H]1[C@H]1C(=O)C=C3[C@@]4(C)C=C(C#N)C(=O)C(C)(C)[C@@H]4CC[C@@]3(C)[C@]1(C)CC2 [Example 4]', 147),
  ('CC1(C)C(=O)C(C#N)=C[C@]2(C)C3=CC(=O)[C@@H]4[C@@H]5C[C@@](C)(Cc6nnco6)CC[C@]5(C)CC[C@@]4(C)[C@]3(C)CC[C@@H]12 [Example 14]', 1460);

[I] Cc1nnc([C@@]2(C)CC[C@]3(C)CC[C@]4(C)[C@H](C(=O)C=C5[C@@]6(C)C=C(C#N)C(=O)C(C)(C)[C@@H]6CC[C@]54C)[C@@H]3C2)o1 [Example 1]
[II] CC1(C)C(=O)C(C#N)=C[C@]2(C)C3=CC(=O)[C@@H]4[C@@H]5C[C@@](C)(C#N)CC[C@]5(C)CC[C@@]4(C)[C@]3(C)CC[C@@H]12 [Example 2]
### Prompt Parameter metric = CLint scaled at 1 μM. Return the lower-valued option from I and II . # answer = label of selected item
### Response I

[1] CC1(C)C(=O)C(C#N)=C[C@]2(C)C3=CC(=O)[C@@H]4[C@@H]5C[C@@](C)(c6nnc(C(N)=O)o6)CC[C@]5(C)CC[C@@]4(C)[C@]3(C)CC[C@@H]12 [Example 25]
[2] CNC(=NC#N)NC[C@]12CCC(C)(C)C[C@H]1[C@H]1C(=O)C=C3[C@@]4(C)C=C(C#N)C(=O)C(C)(C)[C@@H]4CC[C@@]3(C)[C@]1(C)CC2 [Example 3]
### Prompt Parameter metric = CLint scaled at 1 μM. Return the lower-valued option from 1 and 2 . # answer = label of selected item
### Response 2
(2: 150 mL/min/kg, 1: 289 mL/min/kg)

====

assay: Metabolic stability in monkey liver microsomes; assay type: in vitro ADME, cynomolgus monkey
ENDPOINT: half-life at 1 μM (min)

INSERT INTO results (compound, endpoint, experimental_result) VALUES
  ('CC1(C)C(=O)C(C#N)=C[C@]2(C)C3=CC(=O)[C@@H]4[C@@H]5C[C@@](C)(C#N)CC[C@]5(C)CC[C@@]4(C)[C@]3(C)CC[C@@H]12 [Example 2]', 'half-life at 1 μM', 2.4);

[1] CC(=NC#N)NC[C@]12CCC(C)(C)C[C@H]1[C@H]1C(=O)C=C3[C@@]4(C)C=C(C#N)C(=O)C(C)(C)[C@@H]4CC[C@@]3(C)[C@]1(C)CC2 [Example 4]
[2] COC(=O)[C@]12CCC(C)(C)C[C@H]1[C@H]1C(=O)C=C3[C@@]4(C)C=C(C#N)C(=O)C(C)(C)[C@@H]4CC[C@@]3(C)[C@]1(C)CC2 [Control, reference compound]
### Prompt Parameter metric = half-life at 1 μM. Return the lower-valued option from 1 and 2 . # answer = label of selected item
### Response 2
(2: 2 min, 1: 18.1 min)

====

Experiment: Pharmacokinetic studies in Sprague Dawley rats (oral gavage and IV)
Assay type: in vivo
Details: rat, Oral (5 mg/kg), male SD rats, plasma
Description: The pharmacokinetics of test compounds was evaluated in male SD rats when administered via oral gavage and IV injection. For oral dosing, compound was formulated in 0.5% methylcellulose and administered at doses of 5 mg/kg (3 rats per dose level) and volume of 10 mL/kg. […] The samples were analyzed by LC/MS/MS and the concentration of test compound at each timepoint was determined by linear regression. Pharmacokinetic parameters were calculated from the plasma concentrations using Pheonix WinNonlin.
ENDPOINT: half-life (h)

Reference set (5 entries):
INSERT INTO assay_data (compound, endpoint, experimental_result) VALUES
  ('CC1(C)C(=O)C(C#N)=C[C@]2(C)C3=CC(=O)[C@@H]4[C@@H]5C[C@@](C)(c6nnc(C(N)=O)o6)CC[C@]5(C)CC[C@@]4(C)[C@]3(C)CC[C@@H]12', 'half-life', 1.3),
  ('CC1(C)C(=O)C(C#N)=C[C@]2(C)C3=CC(=O)[C@@H]4[C@@H]5C[C@@](C)(C#N)CC[C@]5(C)CC[C@@]4(C)[C@]3(C)CC[C@@H]12', 'half-life', 1.3),
  ('CC(=NC#N)NC[C@]12CCC(C)(C)C[C@H]1[C@H]1C(=O)C=C3[C@@]4(C)C=C(C#N)C(=O)C(C)(C)[C@@H]4CC[C@@]3(C)[C@]1(C)CC2', 'half-life', 2.9),
  ('CC1(C)C(=O)C(C#N)=C[C@]2(C)C3=CC(=O)[C@@H]4[C@@H]5C[C@@](C)(N6CCOC6=O)CC[C@]5(C)CC[C@@]4(C)[C@]3(C)CC[C@@H]12', 'half-life', 2.1),
  ('CC1(C)C(=O)C(C#N)=C[C@]2(C)C3=CC(=O)[C@@H]4[C@@H]5C[C@@](C)(N6C(=O)CCC6=O)CC[C@]5(C)CC[C@@]4(C)[C@]3(C)CC[C@@H]12', 'half-life', 2.3);

[a] COC(=O)[C@]12CCC(C)(C)C[C@H]1[C@H]1C(=O)C=C3[C@@]4(C)C=C(C#N)C(=O)C(C)(C)[C@@H]4CC[C@@]3(C)[C@]1(C)CC2 [Control, reference compound]
[b] Cc1nnc([C@@]2(C)CC[C@]3(C)CC[C@]4(C)[C@H](C(=O)C=C5[C@@]6(C)C=C(C#N)C(=O)C(C)(C)[C@@H]6CC[C@]54C)[C@@H]3C2)o1
### Prompt Which numeric half-life is bigger, that of a or that of b ? # answer = label of selected item
### Response a

====

assay: Metabolic stability in human liver microsomes; format: in vitro ADME
ENDPOINT: CLint scaled at 1 μM (L/h/kg)

[a] CC1(C)C(=O)C(C#N)=C[C@]2(C)C3=CC(=O)[C@@H]4[C@@H]5C[C@@](C)(C#N)CC[C@]5(C)CC[C@@]4(C)[C@]3(C)CC[C@@H]12
[b] CC1(C)C(=O)C(C#N)=C[C@]2(C)C3=CC(=O)[C@@H]4[C@@H]5C[C@@](C)(N6CC(O)C6)CC[C@]5(C)CC[C@@]4(C)[C@]3(C)CC[C@@H]12
[c] CNC(=NC#N)NC[C@]12CCC(C)(C)C[C@H]1[C@H]1C(=O)C=C3[C@@]4(C)C=C(C#N)C(=O)C(C)(C)[C@@H]4CC[C@@]3(C)[C@]1(C)CC2
### Prompt Arrange these compounds by their CLint scaled at 1 μM, starting with the largest number. Thanks in advance for listing the labels in the requested order.
### Response a, b, c
(a: 23.8 L/h/kg, b: 11 L/h/kg, c: 3.04 L/h/kg)

====

assay: Pharmacokinetic studies in Sprague Dawley rats (oral gavage and IV); format: in vivo; settings: rat, Oral (5 mg/kg), male SD rats, plasma
ENDPOINT: half-life (h)

INSERT INTO measurements (line_notation, scale_unit, experimental_result) VALUES
  ('CC1(C)C(=O)C(C#N)=C[C@]2(C)C3=CC(=O)[C@@H]4[C@@H]5C[C@@](C)(c6nnco6)CC[C@]5(C)CC[C@@]4(C)[C@]3(C)CC[C@@H]12', 'h', 2.2);

[a] CC1(C)C(=O)C(C#N)=C[C@]2(C)C3=CC(=O)[C@@H]4[C@@H]5C[C@@](C)(N6CCCC6=O)CC[C@]5(C)CC[C@@]4(C)[C@]3(C)CC[C@@H]12
[b] Cc1noc([C@@]2(C)CC[C@]3(C)CC[C@]4(C)[C@H](C(=O)C=C5[C@@]6(C)C=C(C#N)C(=O)C(C)(C)[C@@H]6CC[C@]54C)[C@@H]3C2)n1
### Prompt Which numeric half-life is bigger, that of a or that of b ? # answer = label of selected item
### Response a

====

target: CYP2C9 (Homo sapiens, UniProt P11712); construct: studied in liver microsomes of CD-1 mouse, Sprague Dawley rat, Beagle dog, cynomolgus monkey, and human; from tissue; host or cells: liver microsomes; assay: CYP450 enzyme inhibition in liver microsomes (cocktail probe incubation); type: in vitro ADME; conditions: species not given, 0.05-50 μM tested
Sequence (P11712 whole entry): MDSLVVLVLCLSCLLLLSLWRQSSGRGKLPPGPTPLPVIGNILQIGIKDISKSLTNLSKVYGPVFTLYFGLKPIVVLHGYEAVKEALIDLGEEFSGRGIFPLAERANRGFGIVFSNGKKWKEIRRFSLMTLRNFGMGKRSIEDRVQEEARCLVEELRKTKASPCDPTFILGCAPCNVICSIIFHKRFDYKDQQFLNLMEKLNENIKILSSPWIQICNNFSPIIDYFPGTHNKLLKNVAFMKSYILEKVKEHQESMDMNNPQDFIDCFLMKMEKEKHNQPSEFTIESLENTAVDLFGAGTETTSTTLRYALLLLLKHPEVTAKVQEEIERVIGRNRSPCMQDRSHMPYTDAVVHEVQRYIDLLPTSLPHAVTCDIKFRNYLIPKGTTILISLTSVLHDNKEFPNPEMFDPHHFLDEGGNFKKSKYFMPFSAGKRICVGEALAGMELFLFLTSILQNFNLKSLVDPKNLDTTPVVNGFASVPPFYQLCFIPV
ENDPOINT: IC50 (nM)

INSERT INTO assay_data (line_notation, experimental_result) VALUES
  ('CC(=NC#N)NC[C@]12CCC(C)(C)C[C@H]1[C@H]1C(=O)C=C3[C@@]4(C)C=C(C#N)C(=O)C(C)(C)[C@@H]4CC[C@@]3(C)[C@]1(C)CC2', 1600);

[I] CC1(C)C(=O)C(C#N)=C[C@]2(C)C3=CC(=O)[C@@H]4[C@@H]5C[C@@](C)(N6CC(O)C6)CC[C@]5(C)CC[C@@]4(C)[C@]3(C)CC[C@@H]12
[II] CNC(=O)c1nnc([C@@]2(C)CC[C@]3(C)CC[C@]4(C)[C@H](C(=O)C=C5[C@@]6(C)C=C(C#N)C(=O)C(C)(C)[C@@H]6CC[C@]54C)[C@@H]3C2)o1
### Prompt Which numeric IC50 is bigger, that of I or that of II ? # answer = label of selected item
### Response I
